Exercise: for every item that follows, state its recorded GI50.
test system: OVCAR-5; assay: NCI tumour cell line growth inhibition, 48 h
Active and inactive are the calls of the source. No stated cut-off is given here; in the data, active = GI50 up to about 1.1 µM and inactive = higher.

Please review the following examples before continuing.
- Molecule: "CCCCOP(=O)(OCCCC)C(NS(=O)(=O)c1ccccc1)(C(=O)OCC)C(F)(F)F (stereo unspecified)"
  Measured value: "31 µM (inactive)"
- Molecule: "Cc1ccnc(NS(=O)(=O)c2ccc(N=[N+]=[N-])cc2)n1"
  Measured value: "> 100 µM (inactive)"
- Molecule: "COC(=O)C(C#CCCCCC#CC(NC(=O)OCc1ccccc1)(C(=O)OC)C(F)(F)F)(NC(=O)OCc1ccccc1)C(F)(F)F (stereo unspecified)"
  Measured value: "> 100 µM (inactive)"
- Molecule: "CCOC(=O)c1nc2ccc(C(F)(F)F)cc2nc1Nc1ccc(OC)cc1"
  Measured value: "> 100 µM (inactive)"
- Molecule: "COC(=O)C1=COC(C)C2CN3CCc4c([nH]c5ccccc45)C3CC12 (stereo unspecified)"
  Measured value: "> 100 µM (inactive)"

With those in mind, consider the next molecule.
Give GI50 for CCOC(=O)C1=NN(c2ccc(C)cc2)C2(c3ccccc3)C=C(c3ccccc3)N(C)CCN12 (stereo unspecified)
> 100 µM (inactive)

====

test system: DU-145; assay: NCI tumour cell line growth inhibition, 48 h
The source made the active and inactive calls. No stated cut-off is given here; in the data, active = GI50 up to about 1.1 µM and inactive = higher. Peptide text beside a SMILES is read from it. * marks the point of attachment. Cbz = O=C(OCc1ccccc1)*
Measured quantity: GI50

- Molecule: "Cc1cn(C2CC(O)C(Cn3cc(Cn4nc(Br)c(=O)[nH]c4=O)nn3)O2)c(=O)[nH]c1=O (stereo unspecified)"
  GI50: "> 100 µM (inactive)"
- Molecule: "Cc1cc(C)c(OC(=O)Nc2cccc3ccccc23)c(-c2ccccc2)c1"
  GI50: "31.9 µM (inactive)"
- Molecule: "COC(=O)[C@@H]1C=C[C@H](OC2OC(COC(C)=O)C(OC(C)=O)C(OC(C)=O)C2OC(C)=O)n2c(=O)c3ccccc3c(=O)n21 (stereo partly specified)"
  GI50: "16.1 µM (inactive)"
- Molecule: "O=c1cc(N2CCN(c3cc(=O)n4ccccc4n3)CC2)oc2ccccc12"
  GI50: "> 100 µM (inactive)"
- Molecule: "Cn1c(=O)c2c(nc3n(Cc4ccccc4)c(=O)c(NCCCBr)cn23)n(C)c1=O"
  GI50: "> 100 µM (inactive)"

The following molecules each have a reported value; give each one's GI50.
1. C/C(=N\NC(=[Se])N(C)C)c1ccccn1
2. Nc1nc(=O)[nH]cc1F [FLUCYTOSINE]
3. CCOC(=O)Nc1nc(-c2ccccc2)c(C)s1
4. CCOC(=O)C(C)NC(=O)C(C)NC(=O)C(C)NC(=O)C(C)NC(=O)C(C)NC(=O)C(C)NC(=O)C(C)NC(=O)OCc1ccccc1 (stereo unspecified) (Cbz-AAAAAAA-OEt; configuration not given here)
5. CN(C)/C=N/n1c2ccccc2c2ccccc21
6. COc1nc(C#CC2CCCCC2)nc(OC)n1

1. 1.41 µM (inactive)
2. > 100 µM (inactive)
3. 52.6 µM (inactive)
4. > 100 µM (inactive)
5. > 100 µM (inactive)
6. 3.92 µM (inactive)

====

Exercise: for every item that follows, state its recorded GI50.
system: HOP-62; assay: NCI tumour cell line growth inhibition, 48 h
Calls of active or inactive are those of the source. Cut-off read from the data, not from the text of the source: active = GI50 up to about 1.1 µM and inactive = higher.

- Compound: "O=C1OC(C2=CC(=O)c3ccccc3C2=O)C(Cl)=C1Cl (stereo not given)"
  GI50: "33.1 µM (inactive)"

The following compounds each have a reported value; give each one's GI50.
1. Cc1cc(NCCCCCCCCCC[n+]2c(C)cc(N)c3ccccc32)c2ccccc2n1
2. COC1CC(OS(=O)(=O)c2ccc(C)cc2)C(OS(=O)(=O)c2ccc(C)cc2)C(COS(=O)(=O)c2ccc(C)cc2)O1 (stereo not given)

1: 4.36 µM (inactive); 2: 2.18 µM (inactive)

The following compounds each have a reported value; give each one's GI50.
1. Cc1cc(C)c(OC(=O)Nc2cccc3ccccc23)c(-c2ccccc2)c1
2. CCCCCCC(CCl)c1sc(-c2csc(CCNC(=O)OC(C)(C)C)n2)nc1C(=O)OC (stereo not given)
3. c1ccc2c(CNCCCN3CCN(CCCNCc4cccc5ccccc45)CC3)cccc2c1

65.8 µM (inactive)
39.8 µM (inactive)
19.8 µM (inactive)

====

tested on: SR; test: NCI tumour cell line growth inhibition, 48 h
Activity calls are given as the source filed them. Cut-off read from the data, not from the text of the source: active = GI50 up to about 1.1 µM and inactive = higher.
Please state which outcome applies, choosing from Yes = active, No = inactive

Reference set, count: 3
- Compound: "Cn1c(N)nc(=O)c2c1N(C1OC(CO)C(O)C1O)CN2Cc1ccccc1 (configuration not stated)"
  Assigned category: "No"
- Compound: "COc1ccc2c(c1)[n+]([O-])c(C(N)=O)c(N)[n+]2[O-]"
  Assigned category: "No"
- Compound: "CCc1ccccc1NC(=O)C(C#N)C1=C(Cl)C(=O)c2ccccc2C1=O (configuration not stated)"
  Assigned category: "No"

Dear colleague, could you share the recorded outcome for "COc1ccc(NC(=S)NNC(=O)c2nsc3ccccc23)cc1" when you have a moment?
No

Dear colleague, could you share the recorded outcome for CCOC(=O)C12C(C(=O)OC)=C(C)N(NC(=O)Nc3ccccc3)C1(N)N(NC(=O)Nc1ccccc1)C(C)=C2C(=O)OC (configuration not stated) when you have a moment?
No

====

tested on: CCRF-CEM; assay: NCI tumour cell line growth inhibition, 48 h
Activity calls are given as the source filed them. Rule as the data show it: active = GI50 up to about 1.1 µM and inactive = higher.
Please state which outcome applies, choosing from Yes (active), No (inactive)

Dear colleague, could you share the recorded outcome for CCOC(=O)C(NS(=O)(=O)c1ccccc1)(C(F)(F)F)P(=O)(OCC(C)C)OCC(C)C (centres undefined) when you have a moment?
No

Dear colleague, could you share the recorded outcome for Cc1ccc(S(=O)(=O)NC(CCC(=O)NN)C(=O)NN)cc1 (centres undefined) when you have a moment?
No

====

tested on: K562; test: NCI tumour cell line growth inhibition, 48 h
The source made the active and inactive calls. No stated cut-off is given here; in the data, active = GI50 up to about 1.1 µM and inactive = higher. Non-standard residues stand in square brackets, D forms with d. Residues, ends and D or L forms follow the SMILES beside them. ξ: configuration not given here. *: point of attachment. ξF = NC(Cc1ccccc1)C(=O)O; Cbz = O=C(OCc1ccccc1)*
Please state which outcome applies, choosing from YES (active), NO (inactive)

Reference set, count: 5
- Molecule: "CC(CC(C)(C)[N+](C)(C)C)[N+](C)(C)C (centres undefined)"
  Assigned category: "NO"
- Molecule: "Cc1ccc(/C=C2\\CN(C)CC3C2=NN(c2ccccc2)C3c2ccc(C)cc2)cc1 (centres undefined)"
  Assigned category: "NO"
- Molecule: "O/N=C(\\C(=N/O)Nc1ccc(-c2ccc(NC(=N/O)/C(=N\\O)c3ccccc3)cc2)cc1)c1ccccc1"
  Assigned category: "NO"
- Molecule: "C=CCOC(=O)CCCCCCCCCCCCCCCOC(=O)C1=C(CCC[C@@H](C)O[Si](C)(C)C(C)(C)C)N=C(N)N2[C@H](CC3(CC/C=C\\[C@H](CC)O[Si](C(C)C)(C(C)C)C(C)C)OCCO3)CC[C@@H]12"
  Assigned category: "YES"
- Molecule: "CCOC(=O)CNC(=O)C(Cc1ccccc1)NC(=O)OCc1ccccc1 (centres undefined) (Cbz-[ξF]-Gly-OEt)"
  Assigned category: "NO"

Dear colleague, could you share the recorded outcome for "CCN(CC)CCCNc1c2cc(OC)ccc2nc2cccc([N+](=O)[O-])c12" when you have a moment?
YES

Dear colleague, could you share the recorded outcome for COC(=O)C(C#CCCCCC#CC(NC(=O)OCc1ccccc1)(C(=O)OC)C(F)(F)F)(NC(=O)OCc1ccccc1)C(F)(F)F (centres undefined) when you have a moment?
NO

Dear colleague, could you share the recorded outcome for "CCSc1[nH]c(Nc2nc(-c3ccccc3)n(-c3ccccc3)n2)c(C(N)=O)c1C(N)=O" when you have a moment?
NO

Dear colleague, could you share the recorded outcome for "Cc1ccc(C=C(C(=O)O)C(=O)O)o1" when you have a moment?
NO

====

Exercise: for every item that follows, state its recorded GI50.
tested on: HCC 2998; test: NCI tumour cell line growth inhibition, 48 h
The source made the active and inactive calls. No stated cut-off is given here; in the data, active = GI50 up to about 1.1 µM and inactive = higher.

- Compound: "CCCCOCOc1ccccc1P1(=O)COc2ccccc2OC1"
  GI50: "> 100 µM (inactive)"
- Compound: "CC1CC(C)CC(NC2=NCCO2)C1 (stereo unspecified)"
  GI50: "> 100 µM (inactive)"
- Compound: "Cc1cc(C)c(OC(=O)Nc2cccc3ccccc23)c(-c2ccccc2)c1"
  GI50: "27.7 µM (inactive)"
- Compound: "O=C1C[C@@H]2[C@@H](CCC23CC3)N1"
  GI50: "> 100 µM (inactive)"
- Compound: "O=C(/N=C1\\SCCN1C(=O)C(C(F)(F)F)C(F)(F)F)C(C(F)(F)F)C(F)(F)F"
  GI50: "> 100 µM (inactive)"
- Compound: "COc1cccc2c1[C@H]1CO[C@H]3C4C[C@H](C(=O)O)C([C@@H](C2)N13)N4C (stereo partly specified)"
  GI50: "2.58 µM (inactive)"
- Compound: "NNC(=O)CCSc1ccccc1"
  GI50: "> 100 µM (inactive)"
- Compound: "[O-][n+]1onc2c1/C(=N/O)CCC2"
  GI50: "> 100 µM (inactive)"
- Compound: "Cc1cc(C)nc(NS(=O)(=O)c2ccc(NNc3c4ccccc4nc4c(C(=O)Nc5ccc(S(N)(=O)=O)cc5)cccc34)cc2)n1"
  GI50: "20.1 µM (inactive)"
- Compound: "CCC(=O)n1c(=O)n(-c2ccc([N+](=O)[O-])cc2)c(=O)n1C(=O)CC"
  GI50: "> 100 µM (inactive)"

The following compounds each have a reported value; give each one's GI50.
1. CC(C)(C)C(=O)O[C@H]1C=C[C@@H](O)[C@@H]2[C@H]1[C@@H]1C=C[C@H]2C1
2. [O-][n+]1onc2c3nn(-c4ccccc4)nc3ccc21
3. N#Cc1nc(CCCCCN2C(=O)c3ccccc3C2=O)oc1N
4. O=C(NCCCCCCNC(=O)n1cc(F)c(=O)[nH]c1=O)NCCCOCCOCCOCCOCCOCCOCCOCCOCCOCCOCCOCCOCCOCCOCCOCCOCCOCCOCCOCCOCCOCCCNC(=O)C(O)C(O)C(O)C(O)CO (stereo unspecified)
5. CN(C)/C=N/n1c2ccccc2c2ccccc21

14.9 µM (inactive)
15.6 µM (inactive)
16.3 µM (inactive)
5.66 µM (inactive)
> 100 µM (inactive)

The following compounds each have a reported value; give each one's GI50.
1. Nc1nc(Cl)c(Cl)c(NCC2(O)CCC2)n1
2. COc1cc2cc(C(=O)N3CC(CCl)c4ccc([N+](C)(C)Cc5ccc([N+](=O)[O-])cc5)cc43)[nH]c2c(OC)c1OC (stereo unspecified)
3. CN(C)CC(C)(C)C(=O)/C=C/c1ccc(/C=C/C(=O)C(C)(C)CN(C)C)cc1
4. CC1(SCC(N)C(=O)O)CC(=O)NC1=O (stereo unspecified)

1: 88.3 µM (inactive); 2: 1.41 µM (inactive); 3: 1.66 µM (inactive); 4: > 100 µM (inactive)

The following compounds each have a reported value; give each one's GI50.
1. S=C=Nc1ccc(CSc2nc3ccccc3[nH]2)cc1
2. O=C(Cc1nc2ccccc2o1)C(=O)Nc1ccccc1C(F)(F)F
3. O=C1COc2cc3c(cc2N1)SCCC(=O)N3
4. CC1=NN(c2ccccc2)C(=O)/C1=C\c1c(C)[nH]n(-c2ccccc2)c1=O

["18.1 µM (inactive)", "> 100 µM (inactive)", "> 100 µM (inactive)", "> 100 µM (inactive)"]

The following compounds each have a reported value; give each one's GI50.
1. Cc1cccc(C(C)(C)C)c1NC(=O)CC1Sc2ccccc2NC1=O (stereo unspecified)
2. COc1cc2c(cc1O)NC(=O)[C@@H]1C[C@@H](O)CN1C2=O
3. CC(CC(C)(C)[N+](C)(C)C)[N+](C)(C)C (stereo unspecified)

> 100 µM (inactive)
> 100 µM (inactive)
> 100 µM (inactive)
